Documented pKd across a set of binders
biological target: T1, rabbit TF-His (rabbit (Oryctolagus cuniculus), UniProt P24055 33-250); assay: SPR (Biacore), antibody captured by anti-human IgG on CM5 chip, rabbit TF-His in solution, 1:1 model
T1 construct: also called rabbit TF ECD-His
T1 sequence (P24055 other isoform, or with tags, fused parts or gaps): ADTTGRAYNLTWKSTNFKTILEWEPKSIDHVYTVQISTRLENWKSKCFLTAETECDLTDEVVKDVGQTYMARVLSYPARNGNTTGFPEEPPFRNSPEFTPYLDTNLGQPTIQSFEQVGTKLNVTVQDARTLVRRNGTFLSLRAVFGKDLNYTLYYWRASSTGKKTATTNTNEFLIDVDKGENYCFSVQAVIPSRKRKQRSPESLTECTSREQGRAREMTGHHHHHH
Lab note — pKd values are minus log10 of concentrations in M.

Consider the worked cases shown below.
>>> endpoint_result("43D7 (antibody, human IgG1, kappa, V domains shown, Human IgG1; also called antibody 43D7) VH: QVQLQQWGAGLLKPSETLSLTCAVYGGSLSGYYWSWIRQPPGKGLEWIGEIGASGSTRYNPSLKSRVTISVDTSKNQFSLKLSSVTAADTAVYYCARDTPYYYEGGYYYYMDVWGKGTTVTVSS VL: EIVLTQSPGTLSLSPGERATLSCRASDSVDSSYLAWYQQKPGQAPRLLIYGAFSRANGIPDRFSGSGSGTDFTLTISRLEPEDFAVYYCQQAGVVPYTFGGGTKVEIKR")
8.17
>>> endpoint_result("25A5-T (antibody, human IgG1, kappa, V domains shown, Human IgG1) VH: QVQLVQSGAEVKKPGASVKVSCKASGYTFDAYGISWVRQAPGQGLEWMGWIAPYSGNTNYAQKLQGRVTMTTDTSTSTAYMELRSLRSDDTAVYYCARDAGTYSPFGYGMDVWGQGTTVTVSS VL: DIQMTQSPSTLSASVGDRVTITCRASESISNWLAWYQQKPGKAPKLLIYKAYSLEYGVPSRFSGSGSGTEFTLTISSLQPDDFATYYCQQFQKLPPFTFGGGTKVEIKR")
8.27

Then this binder:
Can you look up the measured pKd of 25G (antibody, human IgG1, kappa, V domains shown, Human IgG1; also called antibody 25G) VH: QVQLVQSGAEVKKPGASVKVSCKASGYTFRSYGISWVRQAPGQGLEWMGWVAPYNGNTNYAQKLQGRVTMTTDTSTSTAYMELRSLRSDDTAVYYCARDAGTYSPYGYGMDVWGQGTTVTVSS VL: DIQMTQSPSTLSASVGDRVTITCRASQSISSWLAWYQQKPGKAPKLLIYKASSLESGVPSRFSGSGSGTEFTLTISSLQPDDFATYYCQQFQSLPPFTFGGGTKVEIKR for me?
7.12
